Tested on: LOX IMVI melanoma
testProtocol: NCI-60 one-dose screen, 48 h (100 = growth as untreated, 0 = no growth, -100 = all killed)
details: 10 µM unless noted
This is part of a sample that, as a whole, favours compounds with a hit. Of some 83,000 tested, about 20% had one in any assay.
endpoint: growth (%)
Output spec: scalar in %, unitless text.

Reference set (8 entries):
[[record]]
compound = "COc1cc2c(cc1OCCCOc1cc3c(cc1OC)C(=O)N1CCC[C@H]1C=N3)C=CC(C)(C)O2"
resultunit = "%"
number = 69.6

[[record]]
compound = "Nc1cccc(S(=O)(=O)c2cccc(N)c2)c1"
resultunit = "%"
number = 104

[[record]]
compound = "COc1ccc(/C=C2\\Cc3c(Br)cccc3C2=O)c(OC)c1"
resultunit = "%"
number = 59.9

[[record]]
compound = "O=C(N=Nc1c(Cl)c(O)c2ccccc2c1O)C(=O)Nc1cccc(C(F)(F)F)c1"
resultunit = "%"
number = 14.7

[[record]]
compound = "c1ccc2c(Cc3csc4ccccc34)csc2c1"
resultunit = "%"
number = 84.3

[[record]]
compound = "CNCc1cccc2c1OCCOCCOCCC(C)S(=O)(=O)c1ccc(cc1)-c1cnc(N)c(n1)C(=O)N2 (configuration not stated)"
resultunit = "%"
number = 48.8

[[record]]
compound = "NC(N)=N/N=C/c1ccccc1"
resultunit = "%"
number = 100

[[record]]
compound = "NC(=O)c1noc(C(=O)c2ccccc2)c1N"
resultunit = "%"
number = 98.8


Challenge: System LOX IMVI melanoma. Read-out growth. Item CCOC(=O)c1c(NC(=O)c2ccccc2)sc2c(O)c(CN(CC)CC)ccc12 . Report value.
Response given: 13.3

Challenge: System LOX IMVI melanoma. Read-out growth. Item Clc1cn2cc(-c3ccc(Cl)c(Cl)c3Cl)nc2s1 . Report value.
Response given: 99.3

Challenge: System LOX IMVI melanoma. Read-out growth. Item C/C(CC(=O)NNc1ccc([N+](=O)[O-])cc1)=N\Nc1ccc([N+](=O)[O-])cc1 . Report value.
Response given: 70.3

Challenge: System LOX IMVI melanoma. Read-out growth. Item CCOc1c(C#N)c2c(N)ncnc2n1C1OC(CO)C(O)C1O (configuration not stated) . Report value.
Response given: 18.9
